Test system: CAOV3
Assay: Primary qHTS to identify gynecologic anti-cancer compounds using libraries of approved drugs and bioactive compounds (AID 1345084); also: nearly all actives have a fitted effect of over 55% in size
Details: Gynecologic cancer cell panel viability, ATPlite luminescence, 48 h; series mostly up to 57.5 µM
Inconclusive results are not listed. The source made the active and inactive calls. Calls follow the shape of the dose curve; as a rule, active = well fitted cell-killing curve with a large enough effect; inconclusive = small, poorly fitted or top-dose-only effect, or effect the other way; inactive = flat fitted curve, though single readings scatter.
Permitted responses: active, inactive

Solved entries:
-- ask Outcome? CCC/C=C\C=C/CCc1cc(O)c([C@@H]2O[C@H](CO)[C@@H](O)[C@H](O)[C@H]2O)c(O)c1C(=O)OC
-- reply inactive

-- ask Answer briefly: the call reported for CC1=CC2/C=C(\C)CCC3OC(C)(C)OC3CCC(=O)C23C(=O)NC(CC(C)C)C3C1C (stereo not given) in this assay.
-- reply inactive

-- ask Which outcome did this test record for the compound CCCCNc1ncc2c(-c3ccc(S(=O)(=O)N4CCOCC4)cc3)nn(C3CCC(O)CC3)c2n1 (stereo not given) ?
-- reply active

-- ask Please state the recorded outcome for this compound: CC1(C)CCCC2(C)C1C(=O)C=C(C(=O)O)C2(O)C(=O)O (stereo not given)
-- reply inactive

-- ask Which outcome did this test record for the compound CC(C)c1cc2c(N3CCN(C4=NCC(C)(C)S4)CC3)ncnc2s1 ?
-- reply inactive

-- ask Tell me the recorded outcome of this test for COc1cc2c(cc1OCCCN1CCCC1)N=C(N)C21CCC1 .
-- reply inactive

-- ask Please state the recorded outcome for this compound: C=C1[C@H]2CC[C@H](C(=O)O)[C@@]23CC[C@H](C3)C1(C)C
-- reply inactive

-- ask Could you check what this test reported for COc1ccc2nc3n[nH]c(C)c3c(NCCOCCO)c2c1 ?
-- reply inactive

Further cases:
-- ask Give the logged outcome of this assay for the following compound: CC(C)(O)C1Cc2c(ccc(C(=O)CCc3ccccc3)c2O)O1 (stereo not given)
-- reply active

-- ask # outcome recorded in this test, key = CC(CCC1(O)OC2CC3C4CC=C5C[C@@H](O[C@@H]6O[C@H](CO)[C@@H](O[C@@H]7O[C@@H](C)[C@H](O)[C@@H](O)[C@H]7O)[C@H](O)[C@H]6O[C@@H]6O[C@@H](C)[C@H](O)[C@@H](O)[C@H]6O)CC[C@]5(C)C4CC[C@]3(C)[C@@]2(O)[C@@H]1C)CO[C@@H]1O[C@H](CO)[C@@H](O)[C@H](O)[C@H]1O (stereo not given in full)
-- reply active

====

Test system: HACAT
Assay: qHTS assay to identify novel small-molecules to repurpose for Merkel cell carcinoma treatment (AID 1296009); also: nearly all actives have a fitted effect of over 60% in size
Details: MCC and control cell lines, CellTiter-Glo viability, 72 h; at 44.8 µM (top of the series) unless noted
Results filed as inconclusive are left out. Activity calls are given as the source filed them. Calls come from the whole dose curve; as a rule, active = well fitted inhibition curve with a large enough effect; inconclusive = small, poorly fitted or top-dose-only effect; inactive = flat fitted curve, though single readings scatter.
READOUT KIND: outcome

-- ask What value of outcome has been reported for the following molecule? S=C(c1ccc(-c2ccc(Cl)c(Cl)c2)o1)N1CCCCC1
-- reply inactive

-- ask Suppose we examine the molecule Cc1cc(C)nc(SCC(=O)Nc2ncc(Cc3cccc4ccccc34)s2)n1 ; what outcome value has been reported?
-- reply inactive

-- ask What outcome value was documented for this molecule, COC1C=C(C)C(O)(CO)C2(C)CCCC(C)(C)C12 (stereo not given) ?
-- reply inactive

-- ask Given the entry CC(C)(C)c1ccc(C(=O)Nc2cn3cc(-n4ccnc4)ccc3n2)cc1 , report its measured outcome.
-- reply inactive

-- ask outcome lookup needed for COc1ccccc1OCCN1CC(COc2cccc3[nH]c4ccccc4c23)OCC1=O (stereo not given) , thanks.
-- reply inactive

Could you tell me outcome for each of these molecules? They are listed below.
1. C=C(C)C1CCC2(C(=O)O)CCC3(C)C(CCC4C5(C)C(C=O)C(O)C(C)(C)C5CCC43C)C12 (stereo not given)
2. COc1ccc(NC(=O)c2ccc(-c3ccc(C(=N)N)cc3C)cc2)cc1N1CCN(C)CC1
3. Cc1nc(C(=O)N2CCC[C@H]2Cc2nnc(-c3ccccc3)o2)c(-c2ccccc2F)s1
4. O=C(Nc1cnc(Cl)nc1)c1ccc(F)c(F)c1
5. O=C(NC[C@H]1CN(c2ccc(N3CCOCC3=O)cc2)C(=O)O1)c1ccc(Cl)s1
6. O=C(Nc1ccc(C(F)(F)F)cn1)N1CCN(c2ncccc2C(F)(F)F)CC1

-- reply
1. inactive [at 17.4 µM]
2. inactive
3. inactive
4. inactive
5. inactive
6. inactive

For the 2 molecules below, give their outcome values.
1. CCOc1ccc(CCNC(=O)c2cc3sc(Cl)cc3n2C)cc1OCC
2. Cc1ccc(-c2cn3c4c(sc3n2)CCCC4)cc1

-- reply
["inactive", "inactive"]

Count: 6. Required value per item: outcome.
1. Cc1cc(-c2ncc(-c3cccnc3)cc2/C=C/c2ccccc2)cnc1-c1cccnc1
2. CCN(Cc1ccccc1)C(=O)Cn1c(=O)n(C)c2cnc(-c3ccccc3)nc21
3. C=C(C)[C@@H]1CC[C@]2(C(=O)O)CC[C@]3(C(=O)O)[C@H](CCC4[C@@]5(C)CCC(=O)C(C)(C)C5CC[C@]43C)C12 (stereo not given in full)
4. CCc1cnc(N2CCC(c3nc(COc4ccc(-n5cnnn5)cc4)cs3)CC2)nc1
5. CCC(C)/C=C(C)/C=C/C1=CC2=C(Cl)C(=O)C(C)(OC(C)=O)C(=O)C2(O)C(OC)O1 (stereo not given)
6. N[C@@H]1c2cccnc2[C@H](OC(=O)N2CCC(n3c(=O)[nH]c4ncccc43)CC2)CC[C@H]1c1cccc(F)c1F

-- reply
["inactive", "inactive", "inactive [at 17.4 µM]", "inactive", "inactive [at 17.4 µM]", "inactive"]

====

Biological target: Phospholipid hydroperoxide glutathione peroxidase GPX4 (Homo sapiens) (UniProt P36969)
Sequence (P36969 whole entry, looked up): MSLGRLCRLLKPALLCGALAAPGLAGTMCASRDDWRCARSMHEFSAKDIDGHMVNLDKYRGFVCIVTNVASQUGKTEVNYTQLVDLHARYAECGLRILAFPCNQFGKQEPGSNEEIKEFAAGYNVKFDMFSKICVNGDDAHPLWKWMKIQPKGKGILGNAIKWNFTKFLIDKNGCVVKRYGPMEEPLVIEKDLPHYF
Assay: Primary qHTS Assay for Inhibitors of Recombinant Selenoprotein Glutathione Peroxidase 4 (GPX4) (AID 1845192); also: nearly all actives have a fitted effect of over 65% in size
Details: recombinant GPX4, GR-coupled NADPH fluorescence, 15 min; series mostly up to 50 µM
Experimental: Assay Provider: Elias S.J. Arner MD PhD. Department of Medical Biochemistry and Biophysics Karolinska Institutet, Solna, Stockholm, Sweden […] 6; Detection; Fluorescence; ViewLux microplate reader, excitation 340 nm and emission 450 nm. […] 8; Detection; Fluorescence; ViewLux microplate reader, excitation 340 nm and emission 450 nm. […] 6. Initial fluorescence readout (t=0) at 340/450 nm was measured using a ViewLux multimodal detector (PerkinElmer, Waltham, MA). […]
Records with an inconclusive call do not appear. Active and inactive are the calls of the source. The call rests on the fitted dose curve; in most records, active means well fitted inhibition curve with a large enough effect; inconclusive means small, poorly fitted or top-dose-only effect; inactive means flat fitted curve, though single readings scatter.
Tick one outcome: active, inactive

Worked set:
-- ask Each molecule tested received a call. Report the one for OC1C=C2C3CN(Cc4cc5c(cc43)OCO5)C2CC1O (stereo not given) .
-- reply inactive

-- ask Tell me the recorded outcome of this test for CCOc1cc(C(C)(C)C)ccc1C1=NC(C)(c2ccc(Cl)cc2)C(C)(c2ccc(Cl)cc2)N1C(=O)N1CCN(CCCS(C)(=O)=O)CC1 (stereo not given) .
-- reply inactive

-- ask I would be grateful if you could indicate the recorded call for COc1cc2c(cc1-c1c(C)noc1C)ncc1[nH]c(=O)n(C(C)c3ccccn3)c12 (stereo not given) .
-- reply inactive

-- ask Hey, what did the test say about c1cc(NC2CCNCC2)nc(-c2cnc3ccccn23)c1 ?
-- reply active

-- ask Answer briefly: the call reported for COc1c(C)cnc(Cn2cc(C#CCC(C)(C)O)c3c(Cl)nc(N)nc32)c1C in this assay.
-- reply inactive

-- ask Call for entry C=C1C(=O)O[C@@H]2C=C(COC(C)=O)CC/C=C(\CO)CC[C@@H]12 :
-- reply inactive

-- ask Please indicate how the test categorized COc1cc(CCC2=NN=C(NC(=O)c3ccc(N4C[C@@H](C)N[C@@H](C)C4)cc3)C2)cc(OC)c1 .
-- reply inactive

-- ask Fill in: this test's call for CCC(C)C1NC(=O)C(Cc2ccccc2)NC(=O)C(CCCCCC(=O)C(O)CO)NC(=O)C2CCCCN2C1=O (stereo not given) is ___
-- reply inactive

-- ask Returns: the outcome recorded for O=[N+]([O-])c1ccc(Oc2ccc3c(c2)CCC(c2ccccc2)O3)nc1 (stereo not given) in this assay.
-- reply inactive

-- ask How did this test come out for O=S(=O)(O)Oc1ccc(C(c2ccc(OS(=O)(=O)O)cc2)c2ccccn2)cc1 ?
-- reply inactive

---
-- ask Given C[C@@H]1CC[C@@]23CC[C@]4(C)[C@@](C=CC5[C@@]6(C)CC[C@H](O)C(C)(C)C6CC[C@]54C)(OC2=O)C3[C@H]1C (stereo not given in full) , state the outcome it received in this test.
-- reply inactive

-- ask Assay result, entry C=C1C(=O)O[C@@H]2C[C@]3(C)[C@@H](CCC(C)O)[C@@H]3C[C@H]12 (stereo not given in full) — outcome?
-- reply inactive

-- ask Assay outcome for COc1ccc2c(c1)C(C(=O)N(Cc1ccc(N(C)C)cc1)c1ccc(C(C)C)cc1)CCC2 (stereo not given) : what was it?
-- reply inactive

-- ask Recorded call for CCC(C)C(=O)O[C@H]1[C@@H](OC(=O)c2ccoc2)C[C@](C)(O)[C@]23OC(C)(C)[C@H](C[C@H](OC(=O)c4ccoc4)[C@]12COC(C)=O)[C@H]3OC(C)=O (stereo not given in full) ?
-- reply inactive

-- ask Call for entry CC(=O)O[C@H]1CC[C@]2(C)[C@H]3CC[C@]4(C)Oc5oc(C)cc(=O)c5C[C@H]4[C@]3(C)CC[C@H]2C1(C)C :
-- reply inactive

-- ask Hello, I am checking results. What call was entered for CC1=C(c2ccc(NC(=O)c3c(F)cccc3F)cc2)CN(c2nccs2)CC1 ?
-- reply inactive

-- ask Would you mind telling me which call this test gave CC(C)Oc1ccc(-c2cnc3c(-c4ccnc5ccccc45)cnn3c2)cc1 ?
-- reply inactive

-- ask What did this assay record as the result for COC1C(O)C(OC2CCC3(C)C(CCC45CCC6C7(COC(=O)C7)OC4(O)C6(C)CCC35)C2)OC(C)C1OC1OC(CO)C(OC2OC(CO)C(O)C(O)C2O)C(O)C1O (stereo not given) ?
-- reply inactive

-- ask Hello, I am checking results. What call was entered for Cn1ncc(Cl)c1-c1cc(C(=O)N[C@H](CN)Cc2ccc(F)c(F)c2)oc1Cl ?
-- reply inactive
